This collection of values is drawn from PubChem BioAssay (NCI).

Tested on: IGROV1 ovarian
method: NCI tumour cell line growth inhibition, 48 h
Please respond with reported TGI for every item in the list.

Nc1ccc(C(c2ccccc2)(c2ccccc2)c2ccccc2)cc1; > 100 µM
C=C1CCC2C(C)(CO)C(O)CCC2(C)C1CC(O)/C(=C/CO)C(=O)O (stereo unspecified); > 100 µM
COc1ccc(-c2cc(=O)c3c(OC)cccc3o2)c(OC)c1OC; > 100 µM
CN(C)CCCOc1ccc(OCCCN(C)C)c2c1C(=O)c1ccccc1C2=O; 14.2 µM
CC1CC(c2ccc([N+](=O)[O-])cc2)=Nc2ccccc2S1 (stereo unspecified); 35.4 µM
Nc1nc(/C=C\c2ccc([N+](=O)[O-])cc2)nc(N2CCN(c3ccccc3)CC2)n1; 54.1 µM
O=C1Nc2cc(Cl)ccc2/C1=C\c1c(-c2ccc(F)cc2)nc2ccccn12; 5.82 µM
COc1ccc(C(=O)c2cc(OC)c3c(c2)OCO3)cc1O; > 100 µM

// each listed compound needs a value for TGI
1. O=c1cc(-c2ccccc2)oc2cc(Oc3nnnn3-c3ccccc3)ccc12
2. O=C(O)c1cccc2cccc(-c3c4ccc(=O)cc-4oc4cc(O)ccc34)c12
3. CN(C)N=Nc1ccccc1

> 100 µM
> 100 µM
> 100 µM

* * *

Test system: OVCAR-3 ovarian
method: NCI tumour cell line growth inhibition, 48 h
result-type: TGI

Look over these answered cases.
COc1ccc(C2[C@H]3C(=O)N(c4ccc(Cc5ccc(N6C(=O)[C@@H]7ON(c8ccccc8)C(c8ccc(OC)cc8)[C@@H]7C6=O)cc5)cc4)C(=O)[C@H]3ON2c2ccccc2)cc1 (some centres undefined); > 100 µM
CCOC(=O)Nn1c(C)nnc1CC#N; > 100 µM
CC(C)(C)C1CCC2c3c([nH]c4ccccc34)C3C(=O)N(c4cccc([N+](=O)[O-])c4)C(=O)C3C2C1 (centres undefined); > 100 µM

// each listed compound needs a value for TGI
1. COC(=O)[C@H](NC(=O)OC(C)(C)C)[C@H]1COC(C)(C)O1
2. CN(C)c1ccc(C(=O)NCCCCCCC(=O)NO)cc1
3. COc1cc(C2SC(N)=Nc3c2c(C)nn3C(=O)c2ccc(Cl)cc2)cc(OC)c1OC (centres undefined)
4. O=C1c2ccccc2-c2nnc(-c3ccc(Br)cc3)cc21
5. O=c1c2cc(F)ccc2sc2c(N3CCNCC3)nc3ccccc3c12
6. Cc1ccc([N+](=O)[O-])cc1S(=O)(=O)Nc1ccc(C2=NN(C(=O)c3ccccc3)C(c3ccccc3)C2)cc1 (centres undefined)

["> 100 µM", "4.38 µM", "> 10 µM", "> 100 µM", "3.09 µM", "49 µM"]

* * *

Tested on: SNB-19 CNS
method: NCI tumour cell line growth inhibition, 48 h
result-type: TGI

Look over these answered cases.
[Cl-].[Cl-].[Cl-].[O-]c1cccc2cccnc12.[O-]c1cccc2cccnc12.[O]=[Mo]; > 100 µM
O=C1C2C(C(=O)N1c1ccccc1)C1(Br)c3ccccc3C2(Br)C2C(=O)N(c3ccccc3)C(=O)C21 (stereo not given); > 31.6 µM
CCCS(=O)(=O)Nc1ccc(F)c(C(=O)c2c[nH]c3ncc(Cl)cc23)c1F; 99.7 µM
[C-]#[N+][C@@H]1C2[C@H](CC[C@@]1(C)O)C(=C)CC[C@@H]2[C@@]1(C)CC[C@H](Cl)C(C)(C)O1 (stereo not given in full); > 100 µM
O=[N+]([O-])c1ccc2c(c1)Sc1ccccc1N2CCCCCl; > 100 µM
O=C(/C=C/c1ccc(Cl)cc1)/C=C/c1cc2ccccc2[nH]c1=O; 24.7 µM
COc1cc(OC)cc(-n2c(N)c(C#N)c3ccc([N+](=O)[O-])cc3c2=O)c1; 40.4 µM
Nc1nc(SCCC/C=C/B(O)O)nc2c1ncn2C1OC(COP(=O)(O)O)C(O)C1O (stereo not given); > 203 µM

// each listed compound needs a value for TGI
1. O=c1c2ccc3cccc4c(=O)c5ccc6cccc1c6c5-c2c34
2. Cn1ncc2[nH]cnc2c1=S

1: > 50 µM; 2: > 100 µM

* * *

System: HOP-62 NSCLC
method: NCI tumour cell line growth inhibition, 48 h
*1 amine or outer side, *2 acyl side, *3 side chain or, on linkers, in order; H or OH if unused. Where a SMILES comes first, the peptide text is derived from it. Bridges are numbered along the chain shown (N, C = ends). [ ]: non-standard residue; d: D form. Adda = CO[C@@H](Cc1ccccc1)[C@@H](C)/C=C(C)/C=C/[C@H](N[*:1])[C@H](C)C(=O)[*:2]; dAsp(3S-Me) = C[C@H](C(=O)[*:3])[C@@H](N[*:1])C(=O)[*:2]; d(γGlu) = O=C(O)[C@@H](CCC(=O)[*:2])N[*:1]; NMeDha = C=C(NC)C(=O)O
Please respond with reported TGI for every item in the list.

O=S(=O)(O)SC/C=C\CSS(=O)(=O)O; > 100 µM

// each listed compound needs a value for TGI
1. O=C(Nc1cccc(-n2cc(-c3ccncc3)c(-c3ccc(Cl)c(O)c3)n2)c1)Nc1ccc(Cl)c(C(F)(F)F)c1
2. Cn1c(=O)[nH]c2nccnc2c1=O
3. C=C1C(=O)N[C@H](C)C(=O)N[C@@H](CC(C)C)C(=O)N[C@@H](C(=O)O)[C@H](C)C(=O)N[C@@H](CCCN=C(N)N)C(=O)N[C@@H](/C=C/C(C)=C/[C@H](C)[C@H](Cc2ccccc2)OC)[C@H](C)C(=O)N[C@@H](C(=O)O)CCC(=O)N1C (R[Adda][d(γGlu)][NMeDha][dA]L[dAsp(3S-Me)]-OH; lactam N-7)

1. 4.75 µM
2. > 10 µM
3. > 5 µM

// each listed compound needs a value for TGI
1. COc1ccc(C2=C3c4cc(OC)c(OC)cc4CCN3C(=S)SS2)cc1OC
2. N=C(N)N=Nc1ccc(NN=C(N)N)c2c1ncc1c2nc2sccn21

["> 100 µM", "> 100 µM"]

* * *

Test system: MDA-N
method: NCI tumour cell line growth inhibition, 48 h
result-type: TGI (µM)
One number for each entry, in µM.

O=[N+]([O-])c1ccccc1S(=O)(=O)c1cc(O)cc2c1NCCC2; 38.8

Field: next molecule
According to the records, this molecule Cc1ccc([N+](=O)[O-])cc1S(=O)(=O)Nc1ccc(C(=O)/C=C/c2cccs2)cc1 displays TGI of 73

* * *

Tested on: HCC-2998 colon
method: NCI tumour cell line growth inhibition, 48 h; in the data active = GI50 below about 0.43 µM; inactive = the rest
Residues, ends and D or L forms follow the SMILES beside them. *: point of attachment. Boc = CC(C)(C)OC(=O)*
Respond only with the outcome that fits, drawn from active, inactive

Give the logged outcome of this assay for the following compound: COC(=O)CNC(=O)C(Cc1ccccc1)NC(=O)C(Cc1ccccc1)NC(=O)OC(C)(C)C (stereo not drawn) (Boc-Phe-Phe-Gly-OMe; configuration not given here)
inactive

* * *

Record: GI50 reported on U251 CNS.

NCCN.NCCN.[Cl-].[O]=[Os+2]=[O]; > 100000 nM
COc1cc2ncn(-c3cc(O[C@H](C)c4ccccc4Cl)c(C(N)=O)s3)c2cc1OC; 16.1 nM
CN(C)CCCOc1ccc(OCCCN(C)C)c2c1C(=O)c1ccccc1C2=O; 682 nM
O=P(O)(NCCCl)NCCCl; > 100000 nM
CN1CCN(CCCOc2ccc3nc(Nc4cc(Cl)cc(Cl)c4)ccc3c2)CC1; 1610 nM

// each listed compound needs a value for GI50
1. O=C(/C=C/c1ccc(Cl)cc1)/C=C/c1cc2ccccc2[nH]c1=O
2. CCOC(=O)[C@H]1O[C@@H]1C(=O)N[C@@H](CC(C)C)C(=O)NCCc1ccc(O)cc1
3. ClCc1ccc(-c2ccc(Cn3cnc4nc(Cl)nc(Cl)c43)cc2)cc1
4. N=C(N)N=Nc1ccc(NN=C(N)N)c2c1ncc1c2nc2sccn21

["1810 nM", "> 100000 nM", "3820 nM", "23200 nM"]

// each listed compound needs a value for GI50
1. O=C(O)CNC(=O)C(CS)Cc1ccccc1 (stereo unspecified)
2. CCOC(=O)N1C/C(=C/c2ccc(F)cc2)C(=O)/C(=C/c2ccc(F)cc2)C1

> 25000 nM
1190 nM

* * *

System: UACC-62 melanoma
method: NCI tumour cell line growth inhibition, 48 h
Cut-off 10 µM on TGI, inclusive. At or above means y; below means n.

Here are 10 compounds together with their reported answers.
C=CC1(CC)/C(=N\O)C(CC)(CC)C(=O)N1O (stereo not given); y
COc1ccccc1/C=C1\Sc2scc(-c3ccc(O)c(O)c3)[n+]2C1=O; y
CC(=O)NCCc1c(-c2[nH]c3ccccc3c2CCNC(C)=O)[nH]c2ccccc12; y
COc1cc2c(cc1O)NC(=S)[C@@H]1CCCN1C2=O; y
CC1=NN(c2nc(N)nc(C(C#N)C(=O)c3cc4c(cc3Cl)Sc3nccn3S4(=O)=O)n2)C(C)(C)C1 (stereo not given); y
COc1cc2ncn(-c3cc(O[C@H](C)c4ccccc4Cl)c(C(N)=O)s3)c2cc1OC; n
CCOC(=O)N1C/C(=C/c2ccc(F)cc2)C(=O)/C(=C/c2ccc(F)cc2)C1; n
Cc1cc(N(CCC#N)CCC#N)ccc1/C=C\C(=O)Nc1ccccc1; y
O=C(O)/C(=C/C(=O)c1ccc(Cl)cc1)NNc1ccc([N+](=O)[O-])cc1[N+](=O)[O-]; y
CCn1cc(C(=O)O)c(=O)c2cc(F)c(N3CCN(S(=O)(=O)c4ccc(Cl)cc4)CC3)cc21; n

hey, is TGI for this one >= 10 µM? CC1=NCCc2cc3[nH]c4ccccc4c3cc21
y

hey, is TGI for this one >= 10 µM? O=C(/C=C/c1ccc(Cl)cc1)/C=C/c1cc2ccccc2[nH]c1=O
y

hey, is TGI for this one >= 10 µM? O=C(O)c1cccc2cccc(-c3c4ccc(=O)cc-4oc4cc(O)ccc34)c12
y

hey, is TGI for this one >= 10 µM? CCCc1onc(CCC(=O)N(Cc2ccccc2)Cc2ccccc2)c1CC
y

hey, is TGI for this one >= 10 µM? Nc1nc(SCCC/C=C/B(O)O)nc2c1ncn2C1OC(COP(=O)(O)O)C(O)C1O (stereo not given)
y

hey, is TGI for this one >= 10 µM? COc1ccc(NC(=O)/C(Cc2nc3ccccc3[nH]c2=O)=N\O)c(OC)c1
y

hey, is TGI for this one >= 10 µM? O=C1/C(=C\c2ccccc2)C2/C(=C\c3ccccc3)C(=O)/C(=C\c3ccccc3)C2/C1=C\c1ccccc1 (stereo not given)
n

hey, is TGI for this one >= 10 µM? FC(F)(F)c1nnn[n-]1.[Au+].c1ccc([PH+](c2ccccc2)c2ccccc2)cc1
y

hey, is TGI for this one >= 10 µM? Cc1ccc([N+](=O)[O-])cc1S(=O)(=O)Nc1ccc(C(=O)/C=C/c2cccs2)cc1
y

hey, is TGI for this one >= 10 µM? O=[N+]([O-])c1ccccc1S(=O)(=O)c1cc(O)cc2c1NCCC2
y
